biological target: CaLsb1; assay: SPOT peptide array binding signal intensity (averaged, normalized) (arbitrary units (background-subtracted, floor 0; scale differs between SH3 domains)); higher = stronger binding of the SH3 domain to the peptide
# label = Yes if SPOT peptide array binding signal intensity >= 0.8 else No

Example entries begin here.
IKKRNKIRLPSGSPE
Yes
GERSRPLVISILSSA
No
KRKRRLPVSEDTNTK
No
EEEEEHPPLPARRKS
Yes

Okay, now this binder:
Hi team, for RRLRDKYKLPIVDAD , is the recorded SPOT peptide array binding signal intensity at or above 0.8?
Yes
